- assay_system: TIE2 (Homo sapiens, UniProt Q02763)
- Sequence (Q02763 23-1124, species assumed): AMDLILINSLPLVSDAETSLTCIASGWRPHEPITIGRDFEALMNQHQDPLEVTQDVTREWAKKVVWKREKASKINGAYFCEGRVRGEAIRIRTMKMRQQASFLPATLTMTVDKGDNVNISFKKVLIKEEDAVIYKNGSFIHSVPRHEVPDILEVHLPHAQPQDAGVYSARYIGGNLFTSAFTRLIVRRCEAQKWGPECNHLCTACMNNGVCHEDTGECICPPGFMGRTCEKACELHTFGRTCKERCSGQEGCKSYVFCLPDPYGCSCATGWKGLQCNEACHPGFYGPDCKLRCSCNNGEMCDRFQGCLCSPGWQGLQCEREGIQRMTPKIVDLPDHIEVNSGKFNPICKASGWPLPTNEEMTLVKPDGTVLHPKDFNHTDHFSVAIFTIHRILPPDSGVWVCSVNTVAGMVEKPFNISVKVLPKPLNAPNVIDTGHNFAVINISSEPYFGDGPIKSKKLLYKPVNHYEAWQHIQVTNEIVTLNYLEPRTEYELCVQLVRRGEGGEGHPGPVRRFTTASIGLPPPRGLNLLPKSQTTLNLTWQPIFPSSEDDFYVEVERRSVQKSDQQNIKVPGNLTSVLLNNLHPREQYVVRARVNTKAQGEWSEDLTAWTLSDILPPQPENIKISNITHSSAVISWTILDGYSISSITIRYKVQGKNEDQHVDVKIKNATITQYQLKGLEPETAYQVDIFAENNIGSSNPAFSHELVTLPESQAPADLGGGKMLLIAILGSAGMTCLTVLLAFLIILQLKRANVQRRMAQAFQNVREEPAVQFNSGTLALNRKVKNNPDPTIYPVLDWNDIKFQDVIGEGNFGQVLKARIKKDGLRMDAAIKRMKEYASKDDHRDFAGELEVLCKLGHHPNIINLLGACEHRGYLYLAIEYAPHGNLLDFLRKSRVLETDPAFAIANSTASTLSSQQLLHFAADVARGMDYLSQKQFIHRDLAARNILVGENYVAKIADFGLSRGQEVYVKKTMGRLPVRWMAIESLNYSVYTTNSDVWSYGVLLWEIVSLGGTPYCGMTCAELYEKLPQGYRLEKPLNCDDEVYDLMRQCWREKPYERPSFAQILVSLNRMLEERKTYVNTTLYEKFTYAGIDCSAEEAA
- measurement_description: Inhibition of TIE2 (flashplate assay)
- Type: biochemical
- reported_conditions: flashplate method
measured_parameter: IC50 (nM)

Examples from the recorded data:
[[record]]
compound = "NCC1CC(n2cc(I)c3c(N)ncnc32)C1 (stereo not drawn) [Compound 52]"
assay_system = "TIE2 (Homo sapiens, UniProt Q02763)"
value = 2600

[[record]]
compound = "NCC1CC(n2cc(-c3cccc4occc34)c3c(N)ncnc32)C1 (stereo not drawn) [Compound 65]"
assay_system = "TIE2 (Homo sapiens, UniProt Q02763)"
value = 2900

[[record]]
compound = "NCC1CC(n2cc(-c3ccc4ccn(Cc5ccccc5)c4c3)c3c(N)ncnc32)C1 (stereo not drawn) [Compound 55]"
assay_system = "TIE2 (Homo sapiens, UniProt Q02763)"
value = 680


A = NCC1CC(n2cc(-c3ccc4c(c3)n(Cc3ccccc3)c(=O)n4Cc3ccccc3)c3c(N)ncnc32)C1 (stereo not drawn) [Compound 33]
B = NCC1CC(n2cc(-c3ccsc3)c3c(N)ncnc32)C1 (stereo not drawn) [Compound 40]
C = Nc1ncnc2c1c(-c1cccc(O)c1)cn2C1CC(CN2CCCC2)C1 (stereo not drawn) [Compound 2]
D = Nc1ncnc2c1c(-c1ccc3occc3c1)cn2C1CC(CNC(=O)C(F)(F)F)C1 (stereo not drawn) [Compound 64]
Req: // sort entries: IC50, high to low Order the labels as requested and list them.
Resp: B, D, C, A
(B: 9300 nM, D: 2400 nM, C: 870 nM, A: 370 nM)

I = NCC1CC(n2cc(-c3ccc4[nH]ccc4c3)c3c(N)ncnc32)C1 (stereo not drawn) [Compound 3]
II = NCC1CC(n2cc(-c3ccccc3)c3c(N)ncnc32)C1 (stereo not drawn) [Compound 4]
Req: Sorting ascending by IC50, which comes first: I or II ? Your choice should be expressed through its label.
Resp: I

###

Where a name gives a salt, the structure may show the parent alone.
Reported melting point values follow for various compounds

Req: Which melting point is reported for this compound? C[Si](C)(COc1cccc(-c2cn(C3CC(CN)C3)c3ncnc(N)c23)c1)c1ccccc1 (stereo not shown) (as salt: TFA)
Resp: 172 to 174.5 °C

Req: Fill in: melting point of NCC1CC(n2cc(I)c3c(N)ncnc32)C1 (stereo not shown) (as salt: HCl) is ___
Resp: 241 to 242.5 °C

Req: Reported melting point for NCC1CC(n2cc(-c3cccc(NCc4ccccc4)c3)c3c(N)ncnc32)C1 (stereo not shown) : what is it?
Resp: 204 to 206 °C

Req: Given CN(Cc1ccccc1)c1cccc(-c2cn(C3CC(CN)C3)c3ncnc(N)c23)c1 (stereo not shown) , state its recorded melting point.
Resp: 197 to 200 °C

Req: GET /values?readout=melting point&item= NCC1CC(n2cc(-c3cccc(F)c3)c3c(N)ncnc32)C1 (stereo not shown)
Resp: 101 to 102 °C

Req: For the compound shown here, NCC1CC(n2cc(-c3cccs3)c3c(N)ncnc32)C1 (stereo not shown) (as salt: TFA) , give the reported melting point.
Resp: 206 to 207.5 °C

Req: Could you share which melting point value was measured for NCC1CC(n2cc(-c3ccccc3)c3c(N)ncnc32)C1 (stereo not shown) ?
Resp: 84 to 86 °C

###

- assay_system: insulin receptor (InsR) (Homo sapiens)
- Construct: endogenous in cells
- Sequence (P06213 28-1382): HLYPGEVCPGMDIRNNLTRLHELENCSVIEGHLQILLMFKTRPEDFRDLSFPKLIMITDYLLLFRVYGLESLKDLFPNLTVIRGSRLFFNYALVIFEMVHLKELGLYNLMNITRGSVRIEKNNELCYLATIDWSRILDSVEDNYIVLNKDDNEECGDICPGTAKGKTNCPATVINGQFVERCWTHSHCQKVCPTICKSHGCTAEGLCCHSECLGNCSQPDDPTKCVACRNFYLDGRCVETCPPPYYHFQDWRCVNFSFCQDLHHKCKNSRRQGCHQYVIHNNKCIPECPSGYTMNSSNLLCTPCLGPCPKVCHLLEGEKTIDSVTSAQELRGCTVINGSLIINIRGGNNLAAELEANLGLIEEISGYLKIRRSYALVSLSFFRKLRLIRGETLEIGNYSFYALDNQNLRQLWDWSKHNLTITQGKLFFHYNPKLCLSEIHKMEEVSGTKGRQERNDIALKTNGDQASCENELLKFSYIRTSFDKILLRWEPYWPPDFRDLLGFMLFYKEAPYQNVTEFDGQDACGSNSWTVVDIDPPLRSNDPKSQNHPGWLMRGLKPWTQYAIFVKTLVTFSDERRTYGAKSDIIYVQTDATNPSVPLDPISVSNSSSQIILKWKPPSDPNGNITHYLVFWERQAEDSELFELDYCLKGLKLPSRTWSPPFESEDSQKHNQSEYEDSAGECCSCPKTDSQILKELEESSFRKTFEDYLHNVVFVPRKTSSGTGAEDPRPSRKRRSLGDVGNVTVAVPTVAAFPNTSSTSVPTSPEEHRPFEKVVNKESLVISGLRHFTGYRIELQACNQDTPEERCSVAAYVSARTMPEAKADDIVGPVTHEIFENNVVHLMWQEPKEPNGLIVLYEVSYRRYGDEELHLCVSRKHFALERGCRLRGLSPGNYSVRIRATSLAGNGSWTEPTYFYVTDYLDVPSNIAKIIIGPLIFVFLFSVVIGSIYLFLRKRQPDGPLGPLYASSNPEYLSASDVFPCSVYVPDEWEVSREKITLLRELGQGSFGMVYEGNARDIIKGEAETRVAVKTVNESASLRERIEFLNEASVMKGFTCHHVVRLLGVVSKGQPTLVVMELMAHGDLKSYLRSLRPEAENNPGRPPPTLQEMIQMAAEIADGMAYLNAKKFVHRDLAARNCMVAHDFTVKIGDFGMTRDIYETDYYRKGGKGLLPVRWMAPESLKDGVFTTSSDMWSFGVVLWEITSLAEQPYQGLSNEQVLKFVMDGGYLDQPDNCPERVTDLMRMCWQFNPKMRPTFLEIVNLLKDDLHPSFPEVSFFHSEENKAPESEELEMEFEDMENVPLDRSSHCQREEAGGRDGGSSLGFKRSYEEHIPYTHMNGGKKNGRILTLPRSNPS
- measurement_description: Inhibition of InsR (ELISA assay), insulin-stimulated autophosphorylation in cells
- reported_conditions: human cells stimulated with insulin
measured_parameter: IC50 (µM)

1 = NCC1CC(n2cc(-c3ccc4[nH]ccc4c3)c3c(N)ncnc32)C1 (stereo not shown)
2 = C[Si](C)(C)COc1cccc(-c2cn(C3CC(CN)C3)c3ncnc(N)c23)c1 (stereo not shown)
3 = Nc1ncnc2c1c(-c1cccc(O)c1)cn2C1CC(CN2CCCC2)C1 (stereo not shown)
Req: Put the molecules in ascending order of IC50. Quick reminder: the answer is the labels in the order asked.
Resp: 3, 2, 1
(3: 2.1 µM, 2: 5.5 µM, 1: 12 µM)

###

- assay_system: IGF1 receptor (IGF1R) (Homo sapiens)
- Construct: endogenous in cells
- Sequence (P08069 31-1367): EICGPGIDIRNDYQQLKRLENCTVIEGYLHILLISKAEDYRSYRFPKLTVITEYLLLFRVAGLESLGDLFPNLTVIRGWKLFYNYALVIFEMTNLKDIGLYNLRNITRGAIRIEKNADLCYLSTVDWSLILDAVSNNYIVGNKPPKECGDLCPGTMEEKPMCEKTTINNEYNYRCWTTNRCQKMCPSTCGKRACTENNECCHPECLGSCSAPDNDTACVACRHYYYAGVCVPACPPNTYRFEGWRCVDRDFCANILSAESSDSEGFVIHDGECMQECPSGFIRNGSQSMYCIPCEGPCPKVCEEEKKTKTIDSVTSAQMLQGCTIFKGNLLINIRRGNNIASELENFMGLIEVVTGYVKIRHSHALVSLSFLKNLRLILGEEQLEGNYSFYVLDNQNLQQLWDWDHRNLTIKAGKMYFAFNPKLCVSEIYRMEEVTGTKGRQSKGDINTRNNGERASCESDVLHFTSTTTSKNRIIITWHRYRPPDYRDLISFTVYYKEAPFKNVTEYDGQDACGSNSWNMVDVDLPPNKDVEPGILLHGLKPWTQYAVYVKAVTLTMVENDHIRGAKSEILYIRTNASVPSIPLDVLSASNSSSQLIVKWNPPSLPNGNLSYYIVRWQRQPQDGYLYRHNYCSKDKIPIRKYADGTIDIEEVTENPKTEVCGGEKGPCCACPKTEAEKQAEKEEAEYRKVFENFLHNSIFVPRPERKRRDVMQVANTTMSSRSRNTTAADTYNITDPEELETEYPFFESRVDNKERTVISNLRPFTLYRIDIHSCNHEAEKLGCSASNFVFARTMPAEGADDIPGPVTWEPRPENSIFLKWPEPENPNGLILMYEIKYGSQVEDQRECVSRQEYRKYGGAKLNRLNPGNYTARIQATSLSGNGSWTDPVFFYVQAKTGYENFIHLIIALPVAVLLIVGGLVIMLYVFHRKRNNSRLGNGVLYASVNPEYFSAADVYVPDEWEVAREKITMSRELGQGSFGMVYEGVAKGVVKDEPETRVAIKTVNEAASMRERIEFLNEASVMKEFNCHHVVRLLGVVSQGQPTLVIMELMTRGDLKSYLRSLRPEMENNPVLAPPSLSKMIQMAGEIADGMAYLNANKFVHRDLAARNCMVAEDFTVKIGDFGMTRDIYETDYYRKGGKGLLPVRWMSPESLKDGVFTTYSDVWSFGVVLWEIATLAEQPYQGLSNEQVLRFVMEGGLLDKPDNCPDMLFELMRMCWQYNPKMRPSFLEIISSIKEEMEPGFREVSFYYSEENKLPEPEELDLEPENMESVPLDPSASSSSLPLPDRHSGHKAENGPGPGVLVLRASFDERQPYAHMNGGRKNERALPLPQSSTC
- measurement_description: Inhibition of IGF1R (ELISA assay), IGF1-stimulated autophosphorylation in cells
- reported_conditions: human tumour cells stimulated with IGF1, read-out: IC50 IGF (ELISA)
- Procedure: The stimulation induces an autophosphorylation of tyrosine residues in the cytoplasmatic IGF1R domain, which triggers signal transduction cascades, which result in inhibition of apoptosis and proliferation of the cells. The amount of phosphorylated IGF1R is determined by a receptor-specific capture ELISA or an analogous LUMINEX assay. […]
pIC50: −log10 of the molar value.
measured_parameter: pIC50

For orientation, consider the following solved cases.
[[record]]
compound = "NCC1CC(n2cc(-c3ccc4[nH]ccc4c3)c3c(N)ncnc32)C1 (stereo not shown)"
measured_parameter = "pIC50"
value = 5.30

[[record]]
compound = "Nc1ncnc2c1c(-c1cccc(O)c1)cn2C1CC(CN2CCCC2)C1 (stereo not shown) [Compound 2]"
measured_parameter = "pIC50"
value = 5.23

[[record]]
compound = "NCC1CC(n2cc(-c3ccc4c(c3)n(Cc3ccccc3)c(=O)n4Cc3ccccc3)c3c(N)ncnc32)C1 (stereo not shown)"
measured_parameter = "pIC50"
value = 4.70


A = NCC1CC(n2cc(-c3ccsc3)c3c(N)ncnc32)C1 (stereo not shown)
B = NCC1CC(n2cc(I)c3c(N)ncnc32)C1 (stereo not shown)
C = NCC1CC(n2cc(-c3ccc4ccn(Cc5ccccc5)c4c3)c3c(N)ncnc32)C1 (stereo not shown)
D = NCC1CC(n2cc(-c3cc4ccccc4o3)c3c(N)ncnc32)C1 (stereo not shown)
Req: Would you mind ranking these compounds by ascending pIC50? As an answer, provide the labels arranged in the order called for.
Resp: D, A, B, C

1 = NCC1CC(n2cc(-c3cccs3)c3c(N)ncnc32)C1 (stereo not shown)
2 = Nc1ncnc2c1c(-c1cccc(O)c1)cn2C1CC(CN2CCCC2)C1 (stereo not shown) [Compound 1]
Req: When their pIC50 values are compared, which is larger, 1 or 2 ? Let me know the label of the one you choose.
Resp: 2

I = NCC1CC(n2cc(-c3cccnc3)c3c(N)ncnc32)C1 (stereo not shown)
II = NCC1CC(n2cc(C(Cl)=CCOCc3ccccc3)c3c(N)ncnc32)C1 (stereo not shown)
III = NCC1CC(n2cc(-c3cccc(NCc4ccccc4)c3)c3c(N)ncnc32)C1 (stereo not shown)
IV = NCC1CC(n2cc(-c3ccc4c(c3)OCCO4)c3c(N)ncnc32)C1 (stereo not shown)
Req: Let's sort these by pIC50, smallest first. Go ahead? In plain terms: list the labels in the order you were asked to.
Resp: II, I, IV, III

###

- assay_system: FAK (focal adhesion kinase) (Homo sapiens, UniProt Q05397)
- Construct: endogenous in cells
- measurement_description: Inhibition of FAK (ELISA assay), FAK phosphorylation in cells
- reported_conditions: human cells with FAK amplification
measured_parameter: IC50 (µM)

[[record]]
molecule = "NCC1CC(n2cc(-c3ccco3)c3c(N)ncnc32)C1 (stereo not drawn)"
measured_parameter = "IC50"
value = 18

[[record]]
molecule = "Nc1ncnc2c1c(-c1cccc(O)c1)cn2C1CC(CN2CCCC2)C1 (stereo not drawn) [Compound 1]"
measured_parameter = "IC50"
value = 0.077

[[record]]
molecule = "NCC1CC(n2cc(-c3cnc4ccccc4c3)c3c(N)ncnc32)C1 (stereo not drawn)"
measured_parameter = "IC50"
value = 8


a = Nc1ncnc2c1c(-c1cccc(O)c1)cn2C1CC(CN2CCCC2)C1 (stereo not drawn) [Compound 2]
b = CS(=O)(=O)c1cccc(-c2cn(C3CC(CN)C3)c3ncnc(N)c23)c1 (stereo not drawn)
Req: Between a and b , which one shows the larger IC50 value? I would appreciate it if you answered with the label of your choice.
Resp: b

I = NCC1CC(n2cc(-c3ccc4ccn(Cc5ccccc5)c4c3)c3c(N)ncnc32)C1 (stereo not drawn)
II = Cc1csc(-c2cn(C3CC(CN)C3)c3ncnc(N)c23)c1 (stereo not drawn)
Req: Lab note: check whether I or II has the lower measured IC50. Reply briefly: the label of your chosen item.
Resp: II
(II: 7.1 µM, I: 24 µM)

P = CC(C)c1cccc(-c2cn(C3CC(CN)C3)c3ncnc(N)c23)c1 (stereo not drawn)
Q = NCC1CC(n2cc(-c3ccccc3)c3c(N)ncnc32)C1 (stereo not drawn)
Req: Form field 'greater IC50' accepts P or Q ; which applies? // respond with label for picked entry
Resp: P

###

- assay_system: SGK1 (Homo sapiens)
- Sequence (O00141 whole entry): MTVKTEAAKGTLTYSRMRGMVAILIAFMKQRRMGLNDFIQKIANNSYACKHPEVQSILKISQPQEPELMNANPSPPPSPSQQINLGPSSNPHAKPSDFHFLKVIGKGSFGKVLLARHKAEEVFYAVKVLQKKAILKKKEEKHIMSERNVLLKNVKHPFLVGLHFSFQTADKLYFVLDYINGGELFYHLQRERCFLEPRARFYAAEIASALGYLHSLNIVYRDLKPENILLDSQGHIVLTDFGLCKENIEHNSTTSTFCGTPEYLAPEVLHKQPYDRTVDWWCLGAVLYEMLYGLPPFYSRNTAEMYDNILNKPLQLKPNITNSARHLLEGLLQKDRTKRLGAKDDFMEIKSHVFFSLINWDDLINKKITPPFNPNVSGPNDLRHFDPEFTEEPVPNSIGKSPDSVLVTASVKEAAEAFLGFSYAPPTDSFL
measured_parameter: IC50 (nM)

Below: 3 molecules and their reported IC50.
[[record]]
molecule = "NCC1CC(n2cc(-c3ccoc3)c3c(N)ncnc32)C1 (centres unmarked)"
value = 2500

[[record]]
molecule = "Nc1ncnc2c1c(-c1cccc(O)c1)cn2C1CC(CN2CCCC2)C1 (centres unmarked)"
value = 7400

[[record]]
molecule = "NCC1CC(n2cc(-c3ccco3)c3c(N)ncnc32)C1 (centres unmarked)"
value = 2600


P = NCC1CC(n2cc(I)c3c(N)ncnc32)C1 (centres unmarked)
Q = NCC1CC(n2cc(-c3ccsc3)c3c(N)ncnc32)C1 (centres unmarked)
R = NCC1CC(n2cc(-c3cccc(N)c3)c3c(N)ncnc32)C1 (centres unmarked)
Req: Falling order of IC50, please. Put the labels in the requested order and write them down.
Resp: Q, R, P

a = NCC1CC(n2cc(-c3cc4ccccc4o3)c3c(N)ncnc32)C1 (centres unmarked)
b = NCC1CC(n2cc(-c3cccs3)c3c(N)ncnc32)C1 (centres unmarked)
Req: Please tell me which of the two, a or b , has the higher reported IC50 value. // output: label of the selected item
Resp: a
(a: 6100 nM, b: 1600 nM)
